Biological target: Polyclonal antibody ab6982 (Abcam)
Test: cyclic peptide microarray, fiber peptides
This listing pairs substances with measured rank of binding signal.
measurement_label: rank of binding signal (rank)

SYTFSYI (peptide): 64
SFSWDWS (peptide): 100
NKGLYLF (peptide): 20
LNLRLGQ (peptide): 173
SWDWSGH (peptide): 193
NQLNLRL (peptide): 72
AHLIIRF (peptide): 6
SAYSMSF (peptide): 108
QNQLNLR (peptide): 82
NYINEIF (peptide): 16
PELTPPF (peptide): 47
SMSFSWD (peptide): 144
IFATSSY (peptide): 104
YSMSFSW (peptide): 8
YTESYIA (peptide): 181
FLDPEYW (peptide): 50
SAHLIIR (peptide): 65
ATSSYTF (peptide): 80
LNNSFLD (peptide): 180
QSAHLII (peptide): 126
MSFSWDW (peptide): 22
FSWDWSG (peptide): 186
AQNQLNI (peptide): 172
RPSEDTF (peptide): 24
ARPSEDT (peptide): 41
QGPLFIN (peptide): 93
LGQGPLF (peptide): 27
HLIIRFD (peptide): 60
EYWNFRN (peptide): 113
FVSPNG (peptide): 13
AYSMSFS (peptide): 167
GQGPLFI (peptide): 58
HNLDINY (peptide): 9
YINEIFA (peptide): 168
DPEYWNE (peptide): 53
PEYWNFR (peptide): 31
